Origin of values: the supplement of paper PMC10567573

Could you please report measured protein stability index for the items listed next?
B1: TPPP (parent)
chain: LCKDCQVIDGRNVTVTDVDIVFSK

Variants of: B1
Experimental details: protein stability index of a GFP-peptide fusion (GPS, HEK-293T) (PSI 1-6); higher = more stable;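 also: lentivirally expressed fusions sorted by FACS into six bins by GFP to DsRed ratio, PSI derived from sequencing read proportions per bin multiplied by bin number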
Condition summary: c terminus: a fixed tail appended
Reply briefly: the number, and no unit.

Data point: LCKDCQVIDGRTVTVTDVDIVFSK [N12T] ; protein stability index = 2.11

Data point: LCKDCQVIDGRNVSVTDVDIVFSK [T14S] ; protein stability index = 2.83

Data point: LCKDCQVIIGRNVTVTDVDIVFSK [D9I] ; protein stability index = 1.66

Data point: WCKDCQVIDGRNVTVTDVDIVFSK [L1W] ; protein stability index = 1.89

Data point: LCKDCQVIDGRNWTVTDVDIVFSK [V13W] ; protein stability index = 3.13

Data point: LCKDCQVIDGRNVTVTDMDIVFSK [V18M] ; protein stability index = 1.92

Data point: LCGDCQVIDGRNVTVTDVDIVFSK [K3G] ; protein stability index = 3.34

Data point: LCKDCQVIDGRNCTVTDVDIVFSK [V13C] ; protein stability index = 2.16

Data point: LCKDCQVIDGRNVTVTDVDAVFSK [I20A] ; protein stability index = 3.04

Data point: LCKDCQVIDGRNVTYTDVDIVFSK [V15Y] ; protein stability index = 2.01

Data point: LCKDCQVIDGRNVTVTDVDIVFGK [S23G] ; protein stability index = 3.13

Data point: LCKDCQVIFGRNVTVTDVDIVFSK [D9F] ; protein stability index = 1.9

Data point: LCKDCQVIDGRPVTVTDVDIVFSK [N12P] ; protein stability index = 2.4

Data point: LCKDCQRIDGRNVTVTDVDIVFSK [V7R] ; protein stability index = 2.8

Data point: LCKDCQFIDGRNVTVTDVDIVFSK [V7F] ; protein stability index = 2.33

Data point: LCKDCQVIDGRNVTVTDVDIVFSN [K24N] ; protein stability index = 3.05

Data point: LCKDCQVTDGRNVTVTDVDIVFSK [I8T] ; protein stability index = 3.12

Data point: LCKDCQVIDGRNVTVTDVDIVFSY [K24Y] ; protein stability index = 2.06

Data point: LCKDCQVINGRNVTVTDVDIVFSK [D9N] ; protein stability index = 2

Data point: LCKDCQVIDGRNVHVTDVDIVFSK [T14H] ; protein stability index = 2.61

Data point: LCKDCQVIDGRNVTVTDVDIVFSG [K24G] ; protein stability index = 2.55

Data point: LCKDCQVIDGRNVTVTYVDIVFSK [D17Y] ; protein stability index = 2.97

Data point: LCKDCQVDDGRNVTVTDVDIVFSK [I8D] ; protein stability index = 3.97

Data point: LCKDCQVIDGRNVTVTEVDIVFSK [D17E] ; protein stability index = 2.07

Data point: LCKDCQVIDGRNVTSTDVDIVFSK [V15S] ; protein stability index = 2.48

Data point: LCKDCHVIDGRNVTVTDVDIVFSK [Q6H] ; protein stability index = 2.73

Data point: LCKDCQVIDGRNVTVTDVDIVVSK [F22V] ; protein stability index = 2.53

Data point: LCEDCQVIDGRNVTVTDVDIVFSK [K3E] ; protein stability index = 3.21

Data point: LCKDCQVIDGRNVTVTDVIIVFSK [D19I] ; protein stability index = 2.09

Data point: LCKDCQVIDGRNVTVRDVDIVFSK [T16R] ; protein stability index = 2.44

Data point: LCKDCQVIRGRNVTVTDVDIVFSK [D9R] ; protein stability index = 2.53

Data point: LCKDCQVIDGRNVTVTDVDIVTSK [F22T] ; protein stability index = 3.48

Data point: LCKDCQVIDGRNVTVTDVDIVFSW [K24W] ; protein stability index = 2.25

Data point: LCLDCQVIDGRNVTVTDVDIVFSK [K3L] ; protein stability index = 1.92

Data point: LCKDCQVKDGRNVTVTDVDIVFSK [I8K] ; protein stability index = 2.6

Data point: LCKLCQVIDGRNVTVTDVDIVFSK [D4L] ; protein stability index = 1.83

Data point: LCKHCQVIDGRNVTVTDVDIVFSK [D4H] ; protein stability index = 1.57

Data point: LCKDCQVIDGENVTVTDVDIVFSK [R11E] ; protein stability index = 2.9

Data point: LCKDCQVIDGRNVTTTDVDIVFSK [V15T] ; protein stability index = 2.96

Data point: LCKDCQVIDGRNVTVTWVDIVFSK [D17W] ; protein stability index = 2.1

Data point: LCKDCQVIDGRNVTVTDVDFVFSK [I20F] ; protein stability index = 2.38

Data point: LCKDCEVIDGRNVTVTDVDIVFSK [Q6E] ; protein stability index = 2.9

Data point: LCKKCQVIDGRNVTVTDVDIVFSK [D4K] ; protein stability index = 2.31

Data point: LCKDCQVIDGRNVTVTDVDIVFSQ [K24Q] ; protein stability index = 2.35

Data point: LMKDCQVIDGRNVTVTDVDIVFSK [C2M] ; protein stability index = 3.24

Data point: QCKDCQVIDGRNVTVTDVDIVFSK [L1Q] ; protein stability index = 3.08

Data point: LCKMCQVIDGRNVTVTDVDIVFSK [D4M] ; protein stability index = 2.1

Data point: LCKDCQVPDGRNVTVTDVDIVFSK [I8P] ; protein stability index = 3.19

Data point: LCKDCQVIDGFNVTVTDVDIVFSK [R11F] ; protein stability index = 1.91

Data point: LCKDCQQIDGRNVTVTDVDIVFSK [V7Q] ; protein stability index = 2.46

Data point: LLKDCQVIDGRNVTVTDVDIVFSK [C2L] ; protein stability index = 3.09

Data point: LCKDCQVIDGNNVTVTDVDIVFSK [R11N] ; protein stability index = 2.85

Data point: LCKDCQVIDGRNVTVTDVDIVFDK [S23D] ; protein stability index = 2.81

Data point: LCKDCQVIDGRNVTVTDVDIVFYK [S23Y] ; protein stability index = 1.72

Data point: LCKDTQVIDGRNVTVTDVDIVFSK [C5T] ; protein stability index = 3.35

Data point: LCKDCQVIDGRNVQVTDVDIVFSK [T14Q] ; protein stability index = 2.7

Data point: LIKDCQVIDGRNVTVTDVDIVFSK [C2I] ; protein stability index = 2.93

Data point: LEKDCQVIDGRNVTVTDVDIVFSK [C2E] ; protein stability index = 4.36

Data point: LCKDCQVIDGRNVTVEDVDIVFSK [T16E] ; protein stability index = 3.01

Data point: LCKDCQVIDGRNVTVTDVDIHFSK [V21H] ; protein stability index = 2.65

Data point: LCKDCGVIDGRNVTVTDVDIVFSK [Q6G] ; protein stability index = 2.78

Data point: LCKDCQVIDGRNVTVTDVDIVFSL [K24L] ; protein stability index = 2.99

Data point: LCKDCPVIDGRNVTVTDVDIVFSK [Q6P] ; protein stability index = 3.16
